measurementProtocol: inhibitors of IL-1B driven NFkB p65 nuclear import, primary screen, imaging, HUVEC, IL-1B stimulus, high-content imaging (AID 796);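 further: nuclear over cytoplasmic p65 intensity ratio measured by imaging; 0% = IL-1B stimulated DMSO wells and 100% = unstimulated DMSO wells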
runConditions: HUVEC IL-1B NFkB p65 nuclear translocation imaging; at 2 µM; hits give high values
Hit rate of the full screen: of about 94,000 compounds, about 410 (0.44%) were called active. Only a selection was taken, and actives are over-represented in it overall.
measurementLabel: inhibition (%)

compound | measurementUnit | reportedResult
O=C(CSc1nc2ncccc2[nH]1)Nc1ccc2c(c1)OCCO2 | % | 97
O=S(=O)(c1ccc(Br)cc1)n1ccc2ccccc21 | % | 5.3
COC(=O)c1ccc(CSc2ccc3nnc(-c4ccccc4)n3n2)o1 | % | -0.1
CCOc1ccc(NC(=O)C2CCCN(C(=O)Nc3ccccc3)C2)cc1 (stereo unspecified) | % | 5.5
Cc1ccc(/C=N/NC(=O)C(NC(=O)c2ccccc2)c2n[nH]c(=O)c3ccccc23)cc1 (stereo unspecified) | % | -3.6
Cc1nc2c(-c3ccc(F)cc3)c(C)nn2c(C)c1CCC(=O)NCc1ccco1 | % | 8.1
O=C(CSc1nc(C2CC2)nc2ccccc12)Nc1ccc2c(c1)OCCO2 | % | 4.6
O=C(CSc1nnnn1C1CCCC1)Nc1ccc2c(c1)OCCO2 | % | -42.7
CC(C)(C)NS(=O)(=O)CC12CCC(CC1=O)C2(C)C (stereo unspecified) | % | 12.7
CCOc1ccccc1NC(=O)C1CCCN(C(=O)Nc2ccccc2)C1 (stereo unspecified) | % | 40.5
CCOc1ccccc1NC(=O)C1CCN(S(=O)(=O)c2c(C)nn(C)c2C)CC1 | % | 13.5

----------
measurementProtocol: inhibitors of IL-1B driven NFkB p65 nuclear import, primary screen, imaging, HUVEC, IL-1B stimulus, high-content imaging (AID 796)
runConditions: HUVEC IL-1B NFkB p65 nuclear translocation imaging; at 2 µM; hits give high values
Out of some 94,000 compounds screened, about 410 (0.44%) were called active. Many of the other results were omitted from the sample, so actives are more common in it than they were.
# inhibition listing for each entry below

compound | inhibition [%]
COc1ccccc1NC(=S)NC(=O)C(C)C | 13.7
O=C(CSCc1ccc([N+](=O)[O-])cc1)NCCSCc1ccccc1 | 8.4
C=CCn1c(COc2cccc3cccnc23)nnc1SCC(=O)OC | 30.7
COc1ccccc1NC(=O)/C=C/C(N)=O | 43.6
CC(N)C12CC3CC(CC(O)(C3)C1)C2 (configuration not stated) | -22.4
Cc1ccc(C(=O)c2c(NC(=O)c3ccncc3)sc3c2CCCC3)cc1 | 2.2
COc1cc(/C=N/O)cc(Br)c1OCc1cccc(Cl)c1 | -0.3
CC(C)c1ccc(N2CCN(C(=O)c3ccccc3NC(=O)/C=C(\C(=O)O)c3ccccc3)CC2)cc1 | -24.1
Cc1ccccc1NC(=O)C(C)c1ccc(-c2ccccc2)c(F)c1 (configuration not stated) | -13
CCOC(=O)C1Sc2[nH]c(=O)sc2C(c2ccc(Cl)cc2)C1C(=O)OCC (configuration not stated) | -11
Cc1ccc(S(=O)(=O)c2c(COC(=O)c3cccc(Cl)c3)c(-c3ccccc3)nn2C)cc1 | -7.8
CCOC(=O)CNC(=O)CSc1nc2cccnc2n1CC | -2.1
C=CCn1c(COc2ccccc2)nnc1SCC(=O)NCC(=O)OCC | -6.1
O=C(NCCCCCCCCCNC(=O)C(F)(F)F)C(F)(F)F | 8.3
Cc1nc(C)c(C(=O)N(c2ccc(C)c(C)c2)C(C(=O)NCc2ccco2)c2ccccc2)s1 (configuration not stated) | -3.5
Cc1cc(C)cc(N(CC(=O)Nc2c(C)n(C)n(-c3ccccc3)c2=O)S(C)(=O)=O)c1 | -3.1
Cc1cc(C)c([N+](=O)[O-])cc1-c1ccc(/C=N/NC(=O)c2nonc2N)o1 | -17.6
Cc1nnc(SCC(=O)N/N=C/c2cn(-c3ccccc3)nc2-c2ccc(F)cc2)n1-c1ccccc1 | 16.3
Cn1c(C(=O)OC(C(=O)NC2CCCCC2)c2ccccn2)cc2sccc21 (configuration not stated) | -1.9
COc1ccc(C(=O)NC(=S)Nc2ccccc2N2CCN(S(C)(=O)=O)CC2)cc1OC | -15.4
Nc1ccc(-c2sc(N)nc2-c2ccccc2)cc1 | 1.6
COc1cccc(/C=N/NC(=O)c2cccc([N+](=O)[O-])c2)c1OS(=O)(=O)c1ccc(C)cc1 | 1.2

----------
measurementProtocol: inhibitors of IL-1B driven NFkB p65 nuclear import, primary screen, imaging, HUVEC, IL-1B stimulus, high-content imaging (AID 796);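 further: nuclear over cytoplasmic p65 intensity ratio measured by imaging; 0% = IL-1B stimulated DMSO wells and 100% = unstimulated DMSO wells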
runConditions: HUVEC IL-1B NFkB p65 nuclear translocation imaging; at 2 µM; hits give high values
Among all 94,000 compounds or so, about 410 (0.44%) were called active. Shown is part of a subset that was picked to be rich in actives.

compound | inhibition, %
COC(=O)C(NC(=O)c1ccc(OC)cc1)(Nc1ncc(S(=O)(=O)c2ccc([N+](=O)[O-])cc2)s1)C(F)(F)F (stereo unspecified) | 10.1
Cc1ccc(S(=O)(=O)N(C)C2(C)CCS(=O)(=O)C2)cc1 (stereo unspecified) | -19.1
Cc1nn(C)c(Oc2ccc(Cl)cc2)c1C=O | -7.4
Cc1cccc(NC(=O)c2ccc(OCC(=O)NCc3ccccc3)cc2)c1C | 12.8
CC(=O)c1nn(-c2cccc(Br)c2)cc1C(=O)c1cccc2ccccc12 | -11.3
O=C(CN1CCCCCC1)Nc1ccc(Br)cc1Br | 5.3
O=C(Cn1cncn1)N/N=C/c1c2ccccc2cc2ccccc12 | 10.3
CCCc1ccc(-c2c(C)sc(NC(=O)c3ccnn3C)c2C#N)cc1 | 3.3
Cc1occc1C(=O)NNC(=S)NCC(C)C | -8.5
O=C(CSCc1c(Cl)cccc1Cl)NN1C(=O)c2ccccc2C1=O | 7.6
C=CCN1C(=O)C(Cc2cccc(Cl)c2)S/C1=N/N=C/c1ccco1 (stereo unspecified) | 6.5

----------
measurementProtocol: inhibitors of IL-1B driven NFkB p65 nuclear import, primary screen, imaging, HUVEC, IL-1B stimulus, high-content imaging (AID 796);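 further: nuclear over cytoplasmic p65 intensity ratio measured by imaging; 0% = IL-1B stimulated DMSO wells and 100% = unstimulated DMSO wells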
runConditions: HUVEC IL-1B NFkB p65 nuclear translocation imaging; at 2 µM
About 410 (0.44%) of roughly 94,000 compounds were called active.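 Rule for the calls: active = inhibition above about 30% together with a positive call from visual inspection of the well image (limit read from the data); inconclusive = inhibition above a set limit but visual check negative; inactive = inhibition not above a set limit, visual check negative.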 Many of the other results were omitted from the sample, so actives are more common in it than they were.
Outcome codes: yes (active), no (inactive)

molecule | assignedLabel
CCc1nc(C)ccc1OCC(=O)N(CC)CC | no
Cc1cccc(NC(=O)c2cc(N3C(=O)CCC3=O)ccc2Cl)n1 | yes
C=CCOc1ccc(Cl)cc1CNCCCN1CCOCC1 | no
Cc1ccc(-n2c(=O)cc(N3CCN(Cc4ccccc4)CC3)[nH]c2=O)cc1 | no
Nc1nc(Br)c2ccccc2c1-c1ccc(F)cc1 | no
O=[N+]([O-])c1ccccc1OCCCCN1CCCCC1 | no
Cc1cccc(NC(=O)c2ccccc2NC(=O)C(C)(C)C)n1 | no
CCCCC(=O)N/N=C(\C)CC(=O)Nc1cc(Cl)ccc1OC | no
CC(=O)c1cn(CCCCCCCCCCn2cc(C(C)=O)c(=O)[nH]c2=O)c(=O)[nH]c1=O | no
COC(=O)C1(O)CC(C(C)C)=NN1C(=O)c1ccc(Cl)cc1 (configuration not stated) | no
COc1ccc(C2=NOC3(CC(=O)N(c4ccc(Cl)cc4)C3=O)C2)c(OC)c1 (configuration not stated) | no
CNC(=S)NNC(=O)c1sccc1OCc1ccccc1 | no

----------
# inhibition listing for each entry below
measurementProtocol: inhibitors of IL-1B driven NFkB p65 nuclear import, primary screen, imaging, HUVEC, IL-1B stimulus, high-content imaging (AID 796);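 further: nuclear over cytoplasmic p65 intensity ratio measured by imaging; 0% = IL-1B stimulated DMSO wells and 100% = unstimulated DMSO wells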
runConditions: HUVEC IL-1B NFkB p65 nuclear translocation imaging; at 2 µM; hits give high values
Screen size: about 94,000 compounds; about 410 (0.44%) were called active. For the sample, actives were picked, then their nearest neighbours and some compounds at random.
measurementLabel: inhibition (%)

smilesEntry | reportedResult
COc1ccc(/C=N/Nc2nc3ccccc3o2)cc1OC | 45.9
CC1=NN(Cc2ccccc2)C(=O)/C1=C/c1ccc(N(C)C)cc1 | -0.4
CC1(C)CC(=O)C=C(NCCN2CCNCC2)C1 | -15.8
CCOC(=O)c1c(NC(C)=O)sc2c(O)c(Br)ccc12 | -8
O=C(Nc1nnc(CCOCCOCCc2nnc(NC(=O)c3ccco3)s2)s1)c1ccco1 | 2.1
